experiment-notes: Components of the Cytosolic LPS Sensing Pathway: Gene Identification via Genome-wide siRNA Screen
test-context: RAW264.7 macrophages, IL-1a HTRF, actives lie on both sides, screened at 100 nM (by protocol), cells primed 5 h with Pam3CSK4 first
Hit rate of the full screen: of about 53,000 sequences, about 3,700 (7%) were called active.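 How the source made its calls: active means gene knockdowns whose robust z-score for IL-1 alpha signal is at least 2 or at most -2, so actives lie on both sides; inactive means the rest.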 The full list was thinned out, with actives kept by preference.
Give one outcome, nothing more. List: Yes for active, No for inactive

Some entries whose results are on file:
GGAAACCUGAUACUAACAATT against Afmid ... No
CUUAGUGCUCUGGGAGCAGTT against Ms4a5 ... No
GGGUAGGAGGAAAGUGUUCTT against Olfr1093 ... No
GGAGCGAGGAAUCAAUGUUTT against Prss8 ... Yes
GGACAAGGCAACACAUACCTT against Csnk1a1 ... Yes

**Q:** # lookup: test call for GGGAGUGCCUUUAAAACACTT against Satb1
**A:** No

**Q:** Any idea what this test logged for GGAUCUACGUAGCAUUUCATT against Mis12 ?
**A:** No

# credit: PubChem BioAssay AID1508600
